assay: in vivo; parameters: species or system BALB/C nu/nu mice; settings: BALB/C nu/nu, mouse, iv, 40 pmol, total radioactivity, Kidneys uptake
Each entry below lists one item and its recorded tissue uptake at 4 h value.
Give your result in %ID/g as a bare value.

CC(C)C[C@H](NC(=O)C[C@H](O)[C@H](CC(C)C)NC(=O)[C@H](Cc1c[nH]cn1)NC(=O)CN(C)C(=O)[C@@H](NC(=O)[C@H](C)NC(=O)[C@H](Cc1c[nH]c2ccccc12)NC(=O)[C@H](CCC(N)=O)NC(=O)[C@@H](Cc1ccccc1)NC(=O)[C@H](CCCNC(=N)N)NC(=O)COCCOCCNC(=O)CCC(C(=O)O)N1CCN(CC(=O)O)CCN(CC(=O)O)CCN(CC(=O)O)CC1)C(C)C)C(N)=O (some centres unmarked) [[^111In]In-AU-RM26-M3, metal not drawn]: 3.4

Please find the next molecule below.
What tissue uptake at 4 h value was documented for this molecule, CC(C)C[C@H](NC(=O)C[C@H](O)[C@H](CC(C)C)NC(=O)[C@H](Cc1c[nH]cn1)NC(=O)CN(C)C(=O)[C@@H](NC(=O)[C@H](C)NC(=O)[C@H](Cc1c[nH]c2ccccc12)NC(=O)[C@H](CCC(N)=O)NC(=O)[C@@H](Cc1ccccc1)NC(=O)COCCOCCNC(=O)CCC(C(=O)O)N1CCN(CC(=O)O)CCN(CC(=O)O)CCN(CC(=O)O)CC1)C(C)C)C(N)=O (some centres unmarked) [[^111In]In-AU-RM26-M1, [^111In]In-DOTAGA-PEG2-[Sar^11]RM26, metal not drawn, reference compound] ?
6.4

Origin of measurements: paper PMC11054746
